Taken from patent US10294202B2.

System: pigweed
Experiment: Test A pre-/postemergence herbicide test
Type: in vivo, Amaranthus retroflexus
Details: Postemergence, 500 g ai/ha; 0 to 100 scale (0 no effect, 100 complete control)
measured_parameter: Plant response rating, Pigweed
// response body must contain only the number

The examples below pair each entry with its known result.
- compound: "CCN1CC(c2ccc(C(F)(F)F)cc2)C(C(=O)Nc2ccccc2F)C1=O (centres unmarked)"
  value_reported: 0
- compound: "O=C1NCC(c2ccc(C(F)(F)F)cc2F)C1C(=O)Nc1cccc(F)c1F (racemic)"
  value_reported: 70
- compound: "O=C1NCC(c2ccc(F)c(F)c2)C1C(=O)Nc1cccc(C(F)(F)F)c1 (racemic)"
  value_reported: 0
- compound: "O=C1NCC(c2cc(Cl)cc(Cl)c2)C1C(=O)Nc1ccccc1F (racemic)"
  value_reported: 20
- compound: "O=C1NCC(c2ccc(OC(F)(F)F)cc2)C1C(=O)Nc1ccccc1F (racemic)"
  value_reported: 0
- compound: "O=C1NCC(c2ccc(Cl)c(Cl)c2)C1C(=O)Nc1ccccc1F (racemic)"
  value_reported: 0
- compound: "O=C1NCC(c2ccc(Cl)nc2)C1C(=O)Nc1ccccc1F (centres unmarked)"
  value_reported: 30

Data request: State the recorded Plant response rating, Pigweed for this entry: O=C1NCC(c2ccccc2)C1C(=O)Nc1ccc(Br)cc1F (racemic)
Data returned: 0

====

Reported Plant response rating, Ryegrass, Italian is given for each of the following molecules.
System: ryegrass, Italian
Test: Test C pre-/postemergence herbicide test
Format: in vivo, Lolium multiflorum
Details: Preemergence, 62 g ai/ha; scale 0 to 100

Data request: State the recorded Plant response rating, Ryegrass, Italian for this entry: O=C1NCCC1C(=O)N(c1ccc(F)c(F)c1)c1ccccc1F (centres unmarked)
Data returned: 0

Data request: State the recorded Plant response rating, Ryegrass, Italian for this entry: O=C1NCC(c2cccc(OC(F)(F)F)c2)C1C(=O)Nc1ccccc1F (centres unmarked)
Data returned: 0

Data request: State the recorded Plant response rating, Ryegrass, Italian for this entry: Cc1ccccc1NC(=O)C1C(=O)NCC1c1cccc(C(F)(F)F)c1 (racemic)
Data returned: 40

Data request: State the recorded Plant response rating, Ryegrass, Italian for this entry: O=C1NCC(c2ccc(F)cc2)C1C(=O)Nc1ccc(F)c(F)c1F (racemic)
Data returned: 5

Data request: State the recorded Plant response rating, Ryegrass, Italian for this entry: O=C1NCC(c2ccc(F)c(F)c2)C1C(=O)Nc1cccc(F)c1F (racemic)
Data returned: 15

====

Test system: wheat (winter wheat)
Assay: Test C pre-/postemergence herbicide test
Format: in vivo, Triticum aestivum
Conditions: Preemergence, 125 g ai/ha; scale 0 to 100 (0 no effect, 100 complete control)
Could you label it Y if measured Plant response rating, Wheat is 30 or higher, and N otherwise?

Field: example entries. Status: answers known.
- compound: "O=C1NCC(c2cc(F)c(F)c(F)c2)C1C(=O)Nc1cccc(F)c1F (stereo not drawn)"
  class_assignment: "Y"
- compound: "O=C1NCC(c2ccc(C(F)(F)F)cc2)C1C(=O)Nc1cccc(F)c1F (racemic)"
  class_assignment: "Y"
- compound: "Cc1ccccc1NC(=O)C1C(=O)NCC1c1cccc(C(F)(F)F)c1 (racemic)"
  class_assignment: "Y"

Data request: Could you tell me if the measured Plant response rating, Wheat of O=C1NC[C@H](c2cccc(C(F)(F)F)c2)[C@H]1C(=O)Nc1ccccc1F reaches 30 or more?
Data returned: Y

Data request: Could you tell me if the measured Plant response rating, Wheat of O=C1NCC(c2ccc(Cl)cc2)C1C(=O)Nc1cccc(F)c1F (stereo not drawn) reaches 30 or more?
Data returned: N

====

Test system: waterhemp
Assay: Test C pre-/postemergence herbicide test
Type: in vivo, Amaranthus rudis
Conditions: Postemergence, 31 g ai/ha; scale 0 (no effect) to 100 (complete control)
Reported Plant response rating, Waterhemp is given for each of the following compounds.
// response body must contain only the number

- compound: "Cc1ccccc1NC(=O)C1C(=O)NCC1c1cccc(C(F)(F)F)c1 (racemic)"
  value_reported: 0

Data request: State the recorded Plant response rating, Waterhemp for this entry: O=C1NCC(c2ccc(F)c(F)c2)C1C(=O)Nc1cccc(F)c1F (racemic)
Data returned: 0

Data request: State the recorded Plant response rating, Waterhemp for this entry: Cc1c(F)cccc1NC(=O)C1C(=O)NCC1c1ccc(F)c(F)c1 (racemic)
Data returned: 0

Data request: State the recorded Plant response rating, Waterhemp for this entry: O=C1NCC(c2ccc(C(F)(F)F)cc2)C1C(=O)Nc1cccc(F)c1F (stereo not shown)
Data returned: 30

====

System: ragweed
Assay: Test C pre-/postemergence herbicide test
Assay type: in vivo, Ambrosia elatior
Details: Preemergence, 125 g ai/ha; scale 0 to 100 (0 no effect, 100 complete control)
Reported Plant response rating, Ragweed is given for each of the following compounds.
// response body must contain only the number

The examples below pair each entry with its known result.
- compound: "O=C1NCC(c2ccc(F)cc2)C1C(=O)Nc1ccc(F)c(F)c1F (racemic)"
  target_system: "ragweed"
  Plant response rating, Ragweed: 55
- compound: "O=C1NCC(c2ccc(C(F)(F)F)cc2)C1C(=O)Nc1cccc(F)c1F (racemic)"
  target_system: "ragweed"
  Plant response rating, Ragweed: 85
- compound: "O=C1NCC(c2ccc(F)c(Cl)c2)C1C(=O)Nc1ccccc1F (stereo not shown)"
  target_system: "ragweed"
  Plant response rating, Ragweed: 25

Now for the compound whose Plant response rating, Ragweed we want.
Data request: State the recorded Plant response rating, Ragweed for this entry: O=C1NCC(c2ccc(Cl)c(Cl)c2)C1C(=O)Nc1ccccc1F (racemic)
Data returned: 0

====

Tested on: rice
Assay: Test C flooded paddy test
Assay type: in vivo, Oryza sativa
Conditions: Flood, 125 g ai/ha; scale of 0 to 100 where 0 is no effect and 100 is complete control; 13 to 15 days
measured_parameter: Plant response rating, Rice
// response body must contain only the number

- molecule: "CS(=O)(=O)c1ccccc1NC(=O)C1C(=O)NCC1c1ccc(F)c(F)c1 (racemic)"
  target_system: "rice"
  Plant response rating, Rice: 0

Data request: Kindly state the measured Plant response rating, Rice obtained for O=C1NCC(c2ccc(F)c(F)c2)C1C(=O)Nc1cccc(F)c1F (centres unmarked) [Compound 17] with rice.
Data returned: 0

Data request: Kindly state the measured Plant response rating, Rice obtained for O=C1NCC(c2cccc(OC(F)F)c2)C1C(=O)Nc1cccc(F)c1F (centres unmarked) with rice.
Data returned: 0

Data request: Kindly state the measured Plant response rating, Rice obtained for O=C1NC[C@H](c2cccc(C(F)(F)F)c2)[C@H]1C(=O)Nc1ccccc1F with rice.
Data returned: 0

Data request: Kindly state the measured Plant response rating, Rice obtained for O=C1NCC(Br)(c2ccccc2)C1C(=O)Nc1ccccc1F (centres unmarked) with rice.
Data returned: 20

Data request: Kindly state the measured Plant response rating, Rice obtained for O=C1NCC(c2cccc(Cl)c2)C1C(=O)Nc1ccccc1F (racemic) with rice.
Data returned: 0

====

Tested on: barnyardgrass
Assay: Test C pre-/postemergence herbicide test
Format: in vivo, Echinochloa crus-galli
Conditions: Postemergence; 250 g ai/ha; scale 0 to 100 (0 no effect, 100 complete control)
Sorting guide: entries reporting Plant response rating, Barnyardgrass beneath 70 go in the true pile, the rest go in the false pile.

- compound: "Cc1c(F)cccc1NC(=O)C1C(=O)NCC1c1ccc(F)c(F)c1 (racemic) [Compound 106]"
  class_assignment: "true"
- compound: "CN1CC(c2ccc(C(F)(F)F)cc2)C(C(=O)Nc2cccc(F)c2F)C1=O (centres unmarked) [Compound 306]"
  class_assignment: "false"
- compound: "O=C1NCC(c2ccc(F)c(F)c2)C1C(=O)Nc1cccc(F)c1F (racemic) [Compound 101]"
  class_assignment: "false"

Would you kindly look at the next entry?
Data request: State whether 70 exceeds Plant response rating, Barnyardgrass recorded for O=C1NCC(c2cccc(Br)c2)C1C(=O)Nc1ccc(F)c(F)c1F (centres unmarked) [Compound 310] .
Data returned: false

====

Tested on: chickweed
Test: Test C postemergence herbicide test
Type: in vivo, Stellaria media
Details: 31 g ai/ha, scale 0 (no effect) to 100 (complete control)
Reported Plant response rating, Chickweed is given for each of the following molecules.
// response body must contain only the number

The examples below pair each entry with its known result.
- molecule: "Cc1c(F)cccc1NC(=O)C1C(=O)NCC1c1ccc(F)c(F)c1 (racemic)"
  Plant response rating, Chickweed: 0
- molecule: "O=C1NCC(c2cc(F)c(F)cc2F)C1C(=O)Nc1cccc(F)c1F (centres unmarked)"
  Plant response rating, Chickweed: 0
- molecule: "O=C1NCC(c2ccc(F)c(F)c2)C1C(=O)Nc1cccc(F)c1F (racemic)"
  Plant response rating, Chickweed: 35
- molecule: "Cc1ccccc1NC(=O)C1C(=O)NCC1c1cccc(C(F)(F)F)c1 (racemic)"
  Plant response rating, Chickweed: 0

Now for the molecule whose Plant response rating, Chickweed we want.
Data request: Kindly state the measured Plant response rating, Chickweed obtained for O=C1NCC(c2ccc(F)c(Cl)c2)C1C(=O)Nc1ccccc1F (centres unmarked) with chickweed.
Data returned: 0
